# procedure.text: Solubility in organic solvents
# Type: physicochemical
# experimental.conditions: acetonitrile, organic solvent or mixture; read-out: Min solvent required (solubility)
readout.type: solubility

Identify solubility associated with the molecule COC(=O)CC[C@@H]1N=C(c2ccccn2)c2cc(Br)ccc2-n2c(C)cnc21
362 mg/mL

----------
# procedure.text: Solubility in organic solvents
# Type: physicochemical
# experimental.conditions: ethyl acetate, organic solvent or mixture; read-out: Min solvent required (solubility)
readout.type: solubility (mg/mL)
Answers are plain numbers, in mg/mL.

Identify solubility associated with the molecule COC(=O)CC[C@@H]1N=C(c2ccccn2)c2cc(Br)ccc2-n2c(C)cnc21 [compound of formula (I)]
218

----------
# procedure.text: Solubility in organic solvents
# Assay type: physicochemical
# experimental.conditions: methanol, organic solvent or mixture; read-out: Min solvent required (solubility)
readout.type: solubility (mg/mL)
Give bare numbers, in mg/mL.

Identify solubility associated with the molecule COC(=O)CC[C@@H]1N=C(c2ccccn2)c2cc(Br)ccc2-n2c(C)cnc21 [compound of formula (I)]
446

----------
# procedure.text: pKa determination (potentiometric titration, Sirius GlpKa)
# Type: physicochemical
# experimental.conditions: MeOH:H2O mixtures, extrapolated to 0% co-solvent, basic centre of the pyridine ring, free base
readout.type: pKa

Identify pKa associated with the compound COC(=O)CC[C@@H]1N=C(c2ccccn2)c2cc(Br)ccc2-n2c(C)cnc21
1.99

----------
# procedure.text: Solubility in organic solvents
# Type: physicochemical
# experimental.conditions: tetrahydrofuran, organic solvent or mixture; read-out: Min solvent required (solubility)
# Description: The solubility of the compound of formula (I) was determined in a wide range of organic solvents.
readout.type: solubility (mg/mL)
One number for each entry, in mg/mL.

Identify solubility associated with the compound COC(=O)CC[C@@H]1N=C(c2ccccn2)c2cc(Br)ccc2-n2c(C)cnc21
311

----------
# procedure.text: pKa determination (potentiometric titration, Sirius GlpKa)
# Format: physicochemical
# experimental.conditions: MeOH:H2O mixtures, extrapolated to 0% co-solvent, basic centre of the imidazole ring, free base
readout.type: pKa
Give bare numbers.

Identify pKa associated with the compound COC(=O)CC[C@@H]1N=C(c2ccccn2)c2cc(Br)ccc2-n2c(C)cnc21
4.53

----------
# procedure.text: Solubility in organic solvents
# Type: physicochemical
# experimental.conditions: toluene, organic solvent or mixture; read-out: Min solvent required (solubility)
readout.type: solubility (mg/mL)
Numbers only, in mg/mL.

Identify solubility associated with the compound COC(=O)CC[C@@H]1N=C(c2ccccn2)c2cc(Br)ccc2-n2c(C)cnc21
460

----------
# procedure.text: Solubility in organic solvents
# Assay type: physicochemical
# experimental.conditions: propan-2-ol, organic solvent or mixture; read-out: Min solvent required (solubility)
readout.type: solubility
Write the numeric value and append its unit.

Identify solubility associated with the molecule COC(=O)CC[C@@H]1N=C(c2ccccn2)c2cc(Br)ccc2-n2c(C)cnc21
454 mg/mL

----------
# procedure.text: Solubility in organic solvents
# Assay type: physicochemical
# experimental.conditions: acetone, organic solvent or mixture; read-out: Min solvent required (solubility)
readout.type: solubility
Write the numeric value and append its unit.

Identify solubility associated with the compound COC(=O)CC[C@@H]1N=C(c2ccccn2)c2cc(Br)ccc2-n2c(C)cnc21 [compound of formula (I)]
214 mg/mL

----------
# procedure.text: Solubility in water
# Format: physicochemical
# experimental.conditions: thermodynamic from solid, 25° C., maximum 10 mg/ml of parent free form
readout.type: solubility at 24 h (µg/mL)
Numbers only, in µg/mL.

Identify solubility at 24 h associated with the compound COC(=O)CC[C@@H]1N=C(c2ccccn2)c2cc(Br)ccc2-n2c(C)cnc21
7800
